experimentalTarget: human FGF-1 (flg) receptor tyrosine kinase (Homo sapiens)
Construct: a fragment of DNA that codes for the intracellular tyrosine kinase domain
Sequence (P11362 478-767 limits assumed): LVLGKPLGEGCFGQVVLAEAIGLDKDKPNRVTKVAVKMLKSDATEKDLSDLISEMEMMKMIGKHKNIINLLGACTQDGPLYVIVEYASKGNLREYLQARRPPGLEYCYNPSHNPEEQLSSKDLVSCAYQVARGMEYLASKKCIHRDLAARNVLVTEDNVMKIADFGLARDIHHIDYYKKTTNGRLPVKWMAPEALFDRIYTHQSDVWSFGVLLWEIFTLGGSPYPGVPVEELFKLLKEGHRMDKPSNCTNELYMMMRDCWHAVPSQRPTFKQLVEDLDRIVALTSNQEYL
testDetails: FGF receptor tyrosine kinase assay
assaySetup: read-out: Inhibition of Protein Tyrosine Kinases, FGF, IC50
# maps each entry to its pIC50
Note on pIC50: it is the negative log10 of concentration, concentration in mol/L.

Record excerpt, results attached:
[[record]]
smilesstring = "CN1CCN(CCCNc2ncc3cc(-c4c(Cl)cccc4Cl)c(N)nc3n2)CC1"
readoutlabel = "pIC50"
measuredvalue = 6.28

[[record]]
smilesstring = "CC(C)(C)NC(=O)Nc1nc2nc(N)ncc2cc1-c1ccncc1"
readoutlabel = "pIC50"
measuredvalue = 4.89

[[record]]
smilesstring = "CN1CCN(CCCNc2ncc3cc(-c4c(Cl)cccc4Cl)c(NC(=O)Nc4ccc(Cl)cc4)nc3n2)CC1"
readoutlabel = "pIC50"
measuredvalue = 6.70

[[record]]
smilesstring = "COc1cccc(-c2cc3cnc(N)nc3nc2N)c1"
readoutlabel = "pIC50"
measuredvalue = 5.51


Given the entry CNc1ncc2cc(-c3ccccc3)c(NC)nc2n1 , what pIC50 was observed with human FGF-1 (flg) receptor tyrosine kinase (Homo sapiens)?
4.77

Same lookup for CN(C)C=Nc1ncc2cc(-c3c(Cl)cccc3Cl)c(N=CN(C)C)nc2n1 , please.
4.99

Same lookup for CC(=O)Nc1ncc2cc(-c3c(Cl)cccc3Cl)c(NC(C)=O)nc2n1 , please.
4.75

Same lookup for CCN(CC)CCNc1ncc2cc(-c3c(Cl)cccc3Cl)c(N)nc2n1 , please.
4.77

Same lookup for CC(C)(C)NC(=O)Nc1nc2nc(N)ncc2cc1-c1c(Cl)cccc1Br , please.
6.74

---

experimentalTarget: mouse PDGF-β receptor tyrosine kinase (Mus musculus, UniProt P05622)
Construct: a fragment of DNA that codes for the intracellular tyrosine kinase domain; made in house; host or cells: Sf9 insect cells (baculovirus), cell lysate
Sequence (P05622 599-961 limits assumed): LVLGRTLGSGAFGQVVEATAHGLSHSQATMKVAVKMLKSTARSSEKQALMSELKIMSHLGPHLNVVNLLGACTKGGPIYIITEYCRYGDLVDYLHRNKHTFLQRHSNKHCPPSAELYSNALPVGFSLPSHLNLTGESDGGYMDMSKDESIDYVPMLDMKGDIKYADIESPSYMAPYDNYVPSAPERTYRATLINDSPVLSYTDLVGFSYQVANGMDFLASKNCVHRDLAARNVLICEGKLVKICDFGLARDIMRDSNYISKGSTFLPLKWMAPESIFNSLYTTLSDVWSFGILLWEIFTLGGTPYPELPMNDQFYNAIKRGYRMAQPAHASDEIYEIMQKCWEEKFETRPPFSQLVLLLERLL
testDetails: PDGF receptor tyrosine kinase assay
Format: biochemical
assaySetup: at 50 μM; read-out: Inhibition of Protein Tyrosine Kinases, PDGF, % Inhibition
readoutLabel: inhibition at 50 µM (%)
Number only, in %; omit the unit.

Record excerpt, results attached:
[[record]]
smilesstring = "Cc1ccccc1-c1cc2cnc(NC(=O)NC(C)(C)C)nc2nc1NC(=O)NC(C)(C)C"
experimentaltarget = "mouse PDGF-β receptor tyrosine kinase (Mus musculus, UniProt P05622)"
readoutlabel = "inhibition at 50 µM"
measuredvalue = 31.9

[[record]]
smilesstring = "CNc1ncc2cc(-c3ccccc3)c(NC)nc2n1"
experimentaltarget = "mouse PDGF-β receptor tyrosine kinase (Mus musculus, UniProt P05622)"
readoutlabel = "inhibition at 50 µM"
measuredvalue = 47.7

[[record]]
smilesstring = "CN(C)C=Nc1ncc2cc(-c3c(Cl)cccc3Cl)c(N=CN(C)C)nc2n1"
experimentaltarget = "mouse PDGF-β receptor tyrosine kinase (Mus musculus, UniProt P05622)"
readoutlabel = "inhibition at 50 µM"
measuredvalue = 22.9


Find the recorded inhibition at 50 µM belonging to Nc1ncc2cc(-c3ccncc3)c(N)nc2n1 and report it.
23.6

Same lookup for Cc1cc(C)c(C)c(-c2cc3cnc(N)nc3nc2N)c1C , please.
34.3

Same lookup for CNc1nc2nc(N)ncc2cc1-c1ccc(OC)cc1 , please.
18.2

Same lookup for CCN(CC)CCNc1ncc2cc(-c3c(Cl)cccc3Cl)c(N)nc2n1 , please.
29.6

Same lookup for Nc1ncc2cc(-c3cccnc3)c(N)nc2n1 , please.
20.5

Same lookup for CC(=O)Nc1ncc2cc(-c3c(Cl)cccc3Cl)c(NC(C)=O)nc2n1 , please.
33.5

Same lookup for COc1ccccc1-c1cc2cnc(N)nc2nc1N , please.
22.3
